This collection of values is drawn from ChEMBL document CHEMBL1140999.

assay.procedure: Dissociation constant, pKa of the compound
Format: physicochemical
measurement.kind: pKa
API doc: respond with a numeric literal and nothing else, no unit.

[ask] Could you share which pKa value was measured for "NC(=O)c1noc([C@H](CCCC2CCCCC2)CC(=O)NO)n1" ?
[reply] 9

====

assay.procedure: Plasma clearance in dog at 0.5 mg/kg, iv administered as single dose
Type: ADME, organism-based, Canis lupus familiaris
Set-up: dose 0.5 mg/kg, route intravenous
measurement.kind: clearance (mL/min/kg)
Field format: number, assumed mL/min/kg, no unit text.

[ask] Look up clearance for this compound: "NC(=O)c1noc([C@H](CCCC2CCCCC2)CC(=O)NO)n1"
[reply] 35

====

assay.procedure: Volume of distribution in rat at 2 mg/kg, iv administered as single dose
Assay type: ADME, organism-based
Design: dose 2 mg/kg, route intravenous
condition.set: in vivo
measurement.kind: Vd (L/kg)
# unit: L/kg | format: bare number

[ask] Find the recorded Vd belonging to "NC(=O)c1noc([C@H](CCCC2CCCCC2)CC(=O)NO)n1" and report it.
[reply] 12

====

assay.procedure: Elimination half life in rat at 2 mg/kg, iv administered as single dose
Type: ADME, organism-based
Design: dose 2 mg/kg, route intravenous
condition.set: in vivo, read-out: beta t1/2 (converted)
measurement.kind: half-life (min)
Express the result in min but write the number alone.

[ask] What measured half-life goes with "NC(=O)c1noc([C@H](CCCC2CCCCC2)CC(=O)NO)n1" ?
[reply] 48

====

assay.procedure: Plasma clearance in rat at 2 mg/kg, iv administered as single dose
Assay type: ADME, organism-based
Set-up: dose 2 mg/kg, route intravenous
measurement.kind: clearance (mL/min/kg)
Give the number; mL/min/kg is assumed, so skip it.

[ask] Could you share which clearance value was measured for "NC(=O)c1noc([C@H](CCCC2CCCCC2)CC(=O)NO)n1" ?
[reply] 157

====

assay.procedure: Tmax in dog at 2 mg/kg, po administered as single dose
Format: ADME, organism-based, Canis lupus familiaris
Set-up: dose 2 mg/kg, route oral
condition.set: in vivo
measurement.kind: Tmax (min)
Note: unit min is implicit; provide only the numeric part.

[ask] Data request, read-out Tmax, for "NC(=O)c1noc([C@H](CCCC2CCCCC2)CC(=O)NO)n1"
[reply] 30

====

As shown below, each of these compounds has a reported pIC50 value.
measured.on: Bone morphogenetic protein 1 (Homo sapiens)
Sequence (P13497 whole entry): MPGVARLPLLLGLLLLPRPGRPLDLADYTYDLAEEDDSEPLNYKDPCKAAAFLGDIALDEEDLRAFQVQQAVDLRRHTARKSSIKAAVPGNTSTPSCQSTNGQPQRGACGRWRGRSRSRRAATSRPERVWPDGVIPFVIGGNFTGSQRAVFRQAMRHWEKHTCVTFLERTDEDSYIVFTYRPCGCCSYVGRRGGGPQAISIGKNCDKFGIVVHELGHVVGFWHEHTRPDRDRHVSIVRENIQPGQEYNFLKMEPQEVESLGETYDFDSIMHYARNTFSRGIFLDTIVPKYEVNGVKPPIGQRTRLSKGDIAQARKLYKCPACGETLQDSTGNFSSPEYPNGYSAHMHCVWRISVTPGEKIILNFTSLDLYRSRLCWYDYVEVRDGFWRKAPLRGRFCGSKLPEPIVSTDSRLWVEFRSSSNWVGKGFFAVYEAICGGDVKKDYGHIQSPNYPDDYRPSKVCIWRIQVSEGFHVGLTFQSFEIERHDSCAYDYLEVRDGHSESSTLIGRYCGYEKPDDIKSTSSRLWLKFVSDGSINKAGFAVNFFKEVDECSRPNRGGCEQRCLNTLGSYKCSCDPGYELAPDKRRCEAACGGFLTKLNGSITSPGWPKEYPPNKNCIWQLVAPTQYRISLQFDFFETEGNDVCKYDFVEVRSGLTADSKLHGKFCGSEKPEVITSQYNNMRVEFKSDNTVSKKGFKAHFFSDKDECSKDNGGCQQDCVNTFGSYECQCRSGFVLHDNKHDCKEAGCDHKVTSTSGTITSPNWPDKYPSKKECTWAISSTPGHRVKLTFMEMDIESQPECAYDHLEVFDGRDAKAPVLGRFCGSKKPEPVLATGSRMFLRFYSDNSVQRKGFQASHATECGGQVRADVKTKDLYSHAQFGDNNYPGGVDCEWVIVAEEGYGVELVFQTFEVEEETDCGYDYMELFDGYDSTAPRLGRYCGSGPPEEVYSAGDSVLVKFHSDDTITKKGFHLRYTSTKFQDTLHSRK
assay.procedure: Inhibition of human procollagen C-proteinase expressed in CHO cells by fluorescence assay
Format: cell-based
pIC50 here is simply -log10 of the concentration when that concentration is written in mol/L.

[ask] Find the measured pIC50: item "CN(C)C(=O)c1noc([C@H](CCCC2CCCCC2)CC(=O)NO)n1" , target or system Bone morphogenetic protein 1 (Homo sapiens).
[reply] 8.00

[ask] Identify the measured pIC50 of "O=C(C[C@@H](CCCC1CCCCC1)c1nc(C(=O)N2CCCC2)no1)NO" for Bone morphogenetic protein 1 (Homo sapiens).
[reply] 7.37

[ask] Lab note: need pIC50 with Bone morphogenetic protein 1 (Homo sapiens) for entry "CNC(=O)c1noc([C@H](CCCC2CCCCC2)CC(=O)NO)n1" , please look it up.
[reply] 7.55

[ask] # query: pIC50 | item "O=C(C[C@@H](CCCC1CCCCC1)c1nc(C(=O)N2CCCCC2)no1)NO" | system: Bone morphogenetic protein 1 (Homo sapiens)
[reply] 7.59

[ask] Notebook: pull reported pIC50 for Bone morphogenetic protein 1 (Homo sapiens), entry "CN(Cc1ccccc1)C(=O)c1noc([C@H](CCCC2CCCCC2)CC(=O)NO)n1"
[reply] 7.19
